Tested on: Kuramochi cells
assay_details: BrdU cell proliferation assay
Format: cell-based
test_conditions: 96 h, developed on day 4, read-out: BrdU - KURAMOCHI.1: IC50
pIC50: −log10 of the molar value.
As shown below, each of these compounds has a reported pIC50 value.

Worked cases, pIC50 given:
smiles_record	pIC50
C[C@@H](OCC1CCCCC1)[C@H](NC(=O)[C@@H]1CN(c2cccc3ncsc23)CC12CN(C(=O)[C@H]1CC1(C)C)C2)C(=O)N1CCCCC1	5.00 to 5.30
C[C@@H](OCC1CCCCC1)[C@H](NC(=O)[C@@H]1CN(c2nccc3[nH]ncc23)CC12CN(C(=O)[C@H]1CC1(C)C)C2)C(=O)N1CCCCC1	< 5.00
C[C@@H](OCC1CCCCC1)[C@H](NC(=O)[C@@H]1CN(c2cccc3cn[nH]c23)CC12CN(C(=O)[C@H]1CC1(C)C)C2)C(=O)N1CCCCC1	5.30 to 6.30
C[C@@H](OCC1CCC(F)(F)CC1)[C@H](NC(=O)[C@@H]1CN(C(=O)c2cncs2)CC12CN(c1ncco1)C2)C(C)(C)O	< 5.00

Let's switch to this compound now.
[ask] Read the entry CNC(=O)[C@@H](NC(=O)[C@@H]1CN(C(=O)c2cnn(Cc3ccccc3)c2)CC12CN(c1nnn[nH]1)C2)[C@@H](C)OCC1CCCCC1 and write its reported pIC50.
[reply] < 5.00

###

target_entity: CDK2/Cyclin E1 (Homo sapiens (Human))
assay_details: Caliper LabChip EZ Reader mobility shift assay
Type: biochemical
test_conditions: 2.5 nM CDK2/Cyclin E1 (14-475), 100 μM ATP, 1.5 μM fluorescent peptide; read-out: Caliper Assay (CDK2/CCNE1): IC50
As shown below, each of these compounds has a reported IC50 value.

Worked cases, IC50 given:
compound	IC50
C[C@@H](OCC1(CO)CC=CCC1)C(NC(=O)[C@@H]1CN(c2ncnc3ncsc23)CC12CN(C(=O)[C@H]1CC1(C)C)C2)C(=O)N1CCC(OC(F)(F)F)CC1 (stereo partly shown) [Compound I-35]	0.01 to 0.1 µM
C[C@@H](OCC1CCC(F)(F)CC1)[C@H](NC(=O)[C@@H]1CN(C(=O)c2cncs2)CC12CN(c1ncco1)C2)C(C)(C)O [Compound I-4]	1 to 10 µM
C[C@@H](OCC1CCCCC1)[C@H](NC(=O)[C@@H]1CN(c2nccc3[nH]ncc23)CC12CN(C(=O)[C@H]1CC1(C)C)C2)C(=O)N1CCCCC1 [Compound I-9]	> 10 µM

[ask] Read the entry C[C@@H](OCC1CCCCC1)[C@H](NC(=O)[C@@H]1CN(c2cccc3scnc23)CC12CN(C(=O)[C@H]1CC1(C)C)C2)C(=O)N1CCCCC1 [Compound I-8] and write its reported IC50.
[reply] > 10 µM

[ask] Read the entry COC[C@H]1CCCN(C(=O)[C@@H](NC(=O)[C@@H]2CN(c3cc(O)cc4ncsc34)CC23CN(C(=O)[C@H]2CC2(C)C)C3)[C@@H](C)OCC23CCC(CC2)OC3)C1 [Compound I-20] and write its reported IC50.
[reply] 0.1 to 1 µM

[ask] Read the entry C[C@@H](OCC1CCCCC1)[C@H](NC(=O)[C@@H]1CN(c2cccc3[nH]ccc23)CC12CN(C(=O)[C@H]1CC1(C)C)C2)C(=O)N1CCCCC1 [Compound I-14] and write its reported IC50.
[reply] > 10 µM

[ask] Read the entry CNC(=O)[C@@H](NC(=O)[C@@H]1CN(C(=O)c2cnn(Cc3ccccc3)c2)CC12CN(c1ncco1)C2)[C@@H](C)OCC1CCCCC1 [Compound I-2] and write its reported IC50.
[reply] 0.1 to 1 µM
